Would you kindly list kON improvement factor vs parental scFv Li3G30 for each of these binders?
assayedSystem: EGFRvIII-Fc fusion antigen (human, UniProt P00533 25-645)
assayExplanation: SPR Biacore T200, EGFRvIII-Fc captured via anti-hu Fc, scFv analyte, 1:1 model;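 further: Multi-cycle kinetics on a CM5 chip in HBS-P+ running buffer, 180 s scFv association then 540 s dissociation, with blank flow cell signals subtracted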
Numbers only, in fold.

# binder, measureUnit, measuredValue
rows = [
    ("scFv 476 (scFv, V domains shown, One-chain scFv, His-tagged) VH: EVQLVQSGAEVKKPGESLKISCKGSGYSFTSYWIGWVRQMPGKGLEWMGIIYPGDSDTRYSPSFQGQVTISADKSISTAYLQWSSLKASDTAMYYCARLGSSWTNDAFDIWGQGTLVTVSS VL: SYELTQPPSVSVSPGQTARITCSGDNIPHQYAYWYQQKPGQAPVLVIYKDTERPAGIPERFSGSSSGTTVTLTISGVQAEDEADYYCQSADPTGAYLVFGGGTKLTVL", "fold", 4.3),
]

Lab note: next binder to report on.
Lookup: // lookup kON improvement factor vs parental scFv Li3G30 for scFv 472 (scFv, V domains shown, One-chain scFv, His-tagged) VH: EVQLVQSGAEVKKPGESLKISCKGSGYSFGYYWIGWVRQMPGKGLEWMGIIYPGDSHTRYSPSFQGQVTISADKSISTAYLQWSSLKASDTAMYYCARLGSSWTNDAFDIWGQGTLVTVSS VL: SYELTQPPSVSVSPGQTARITCSGDALPKQYAYWYQQKPGQAPVLVIYKDTERPSGIPERFSGSSSGTTVTLTISGVQAEDEADYYCQSVDSSGTQVVFGGGTKLTVL
Found: 23.8
